# measured_on: β-adrenergic receptors, guinea pig right atria (Cavia porcellus)
# Sequence (H0W3H1 1-470): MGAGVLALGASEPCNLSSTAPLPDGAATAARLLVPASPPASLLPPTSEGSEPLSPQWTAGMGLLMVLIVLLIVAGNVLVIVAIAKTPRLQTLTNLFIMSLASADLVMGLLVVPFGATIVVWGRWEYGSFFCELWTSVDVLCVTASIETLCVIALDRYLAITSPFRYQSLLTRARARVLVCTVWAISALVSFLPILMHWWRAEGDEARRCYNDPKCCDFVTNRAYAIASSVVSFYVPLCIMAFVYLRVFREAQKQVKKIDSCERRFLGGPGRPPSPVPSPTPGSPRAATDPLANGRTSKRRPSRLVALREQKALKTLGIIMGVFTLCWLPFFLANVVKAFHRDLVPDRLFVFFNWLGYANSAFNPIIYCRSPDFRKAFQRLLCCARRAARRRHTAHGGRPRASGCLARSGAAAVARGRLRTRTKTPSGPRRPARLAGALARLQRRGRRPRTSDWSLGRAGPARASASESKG
# method_notes: β-blocking activity in vitro, guinea pig right atria (rate response to isoproterenol)
# Format: cell-based
# cond: read-out: pA2 Atria (converted)
readout_kind: Kb (nM)
Expressed in nM, but write only the number.

// lookup Kb | system=β-adrenergic receptors, guinea pig right atria (Cavia porcellus) | key= COC(=O)c1ccccc1OCC(O)CNC(C)C (stereo not shown)
6.31

Moving on to C=CCOC(=O)c1ccccc1OCC(O)CNC(C)C (stereo not shown)
12.6

Moving on to C=CCOC(=O)c1cccc(OCC(O)CNC(C)C)c1 (stereo not shown)
126

Moving on to C=CCOC(=O)c1ccc(OCC(O)CNC(C)C)cc1 (stereo not shown)
501

###

# measured_on: β-adrenergic receptors, guinea pig tracheal strips (Cavia porcellus)
# Construct: Spiral strips of guinea pig trachea; from tissue; host or cells: guinea pig trachea, spiral strips
# Sequence (Q8K4Z4 whole entry): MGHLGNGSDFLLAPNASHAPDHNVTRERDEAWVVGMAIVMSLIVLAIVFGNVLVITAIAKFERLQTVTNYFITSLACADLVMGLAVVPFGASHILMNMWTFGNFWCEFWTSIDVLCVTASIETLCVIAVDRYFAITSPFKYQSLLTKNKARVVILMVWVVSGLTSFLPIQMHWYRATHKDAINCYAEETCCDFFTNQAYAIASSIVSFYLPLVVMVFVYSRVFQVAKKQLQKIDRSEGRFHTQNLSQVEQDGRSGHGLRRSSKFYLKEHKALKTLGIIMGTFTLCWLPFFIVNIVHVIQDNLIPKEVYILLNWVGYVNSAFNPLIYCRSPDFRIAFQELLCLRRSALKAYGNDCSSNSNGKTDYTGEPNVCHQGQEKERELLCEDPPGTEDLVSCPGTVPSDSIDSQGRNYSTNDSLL
# method_notes: β-blocking activity in vitro, guinea pig tracheal strips (tension response to isoproterenol)
# Assay type: cell-based
# cond: pA2 = -log KB; vs isoproterenol; 60-minute incubation; tracheal tension
readout_kind: pA2 Trachea

Which pA2 Trachea is reported for this molecule? CCCOC(=O)CCc1ccc(OCC(O)CNC(C)C)cc1.Cl (stereo not drawn)
5.2

Moving on to COC(=O)c1ccc(OCC(O)CNC(C)(C)C)cc1 (stereo not drawn)
5.4

Moving on to COC(=O)c1ccccc1OCC(O)CNC(C)C (stereo not drawn)
7.9

Moving on to CCOC(=O)c1ccc(OCC(O)CNC(C)C)cc1.Cl (stereo not drawn)
6.1

Moving on to COC(=O)CCc1ccc(OCC(O)CNCCc2ccc(OC)c(OC)c2)cc1 (stereo not drawn)
5.2

Moving on to COC(=O)c1ccccc1OCC(O)CNCCc1ccc(OC)c(OC)c1.O=C(O)C(=O)O (stereo not drawn)
7.1

Moving on to COC(=O)Cc1ccc(OCC(O)CNC(C)C)cc1.Cl (stereo not drawn)
5.4

Moving on to COC(=O)CCc1ccc(OCC(O)CNC(C)(C)C)cc1 (stereo not drawn)
5.9

Moving on to COC(=O)c1ccc(OCC(O)CNC(C)C)cc1.Cl (stereo not drawn)
5.5

###

# Test system: beta-receptor mediated tachycardia (dog heart rate)
# method_notes: beta-blockade in vivo in pentobarbital-anesthetized dogs, 40-minute infusion, inhibition of heart rate response to isoproterenol and recovery
# cond: time for 80% recovery of heart rate after 40-minute i.v. infusion, dogs; in min
Counter-ions that a name gives are not always drawn.
I'd appreciate it if you could supply 80% Recovery Time values for the items below.
Answer with a bare number; do not write a unit.

Which 80% Recovery Time is reported for this molecule? COC(=O)CCc1ccc(OCC(O)CNC(C)(C)C)cc1 (stereo not shown) [V]
7

Moving on to COC(=O)CCc1ccc(OCC(O)CNC(C)C)cc1.Cl (stereo not shown) [Example IV]
12

Moving on to COC(=O)Cc1ccc(OCC(O)CNC(C)C)cc1.Cl (stereo not shown) [III]
20

Moving on to COC(=O)c1ccccc1OCC(O)CNC(C)C (stereo not shown) [Example IX]
15

Moving on to CCOC(=O)c1ccc(OCC(O)CNC(C)C)cc1.Cl (stereo not shown) [II]
56

Moving on to COC(=O)c1ccccc1OCC(O)CNC(C)(C)C (stereo not shown) [Example X, Hydrochloride Hemihydrate]
12

Moving on to COC(=O)c1ccc(OCC(O)CNC(C)C)cc1.Cl (stereo not shown) [Example I]
34
